biological target: PI3Kα (Homo sapiens, UniProt P42336); construct: Full length p110 subunits of PI3K α, β and δ, N-terminally labeled with polyHis tag; polyHis (N); made in house; host or cells: Sf9 insect cells (baculovirus); experiment: In vitro PI3 kinase enzyme assay (PI3K ATP loss), alpha; assay type: biochemical; settings: average if run more than once; read-out: ATP Loss (PBKα) IC50 μM (Avg)
Sequence (P42336 whole entry): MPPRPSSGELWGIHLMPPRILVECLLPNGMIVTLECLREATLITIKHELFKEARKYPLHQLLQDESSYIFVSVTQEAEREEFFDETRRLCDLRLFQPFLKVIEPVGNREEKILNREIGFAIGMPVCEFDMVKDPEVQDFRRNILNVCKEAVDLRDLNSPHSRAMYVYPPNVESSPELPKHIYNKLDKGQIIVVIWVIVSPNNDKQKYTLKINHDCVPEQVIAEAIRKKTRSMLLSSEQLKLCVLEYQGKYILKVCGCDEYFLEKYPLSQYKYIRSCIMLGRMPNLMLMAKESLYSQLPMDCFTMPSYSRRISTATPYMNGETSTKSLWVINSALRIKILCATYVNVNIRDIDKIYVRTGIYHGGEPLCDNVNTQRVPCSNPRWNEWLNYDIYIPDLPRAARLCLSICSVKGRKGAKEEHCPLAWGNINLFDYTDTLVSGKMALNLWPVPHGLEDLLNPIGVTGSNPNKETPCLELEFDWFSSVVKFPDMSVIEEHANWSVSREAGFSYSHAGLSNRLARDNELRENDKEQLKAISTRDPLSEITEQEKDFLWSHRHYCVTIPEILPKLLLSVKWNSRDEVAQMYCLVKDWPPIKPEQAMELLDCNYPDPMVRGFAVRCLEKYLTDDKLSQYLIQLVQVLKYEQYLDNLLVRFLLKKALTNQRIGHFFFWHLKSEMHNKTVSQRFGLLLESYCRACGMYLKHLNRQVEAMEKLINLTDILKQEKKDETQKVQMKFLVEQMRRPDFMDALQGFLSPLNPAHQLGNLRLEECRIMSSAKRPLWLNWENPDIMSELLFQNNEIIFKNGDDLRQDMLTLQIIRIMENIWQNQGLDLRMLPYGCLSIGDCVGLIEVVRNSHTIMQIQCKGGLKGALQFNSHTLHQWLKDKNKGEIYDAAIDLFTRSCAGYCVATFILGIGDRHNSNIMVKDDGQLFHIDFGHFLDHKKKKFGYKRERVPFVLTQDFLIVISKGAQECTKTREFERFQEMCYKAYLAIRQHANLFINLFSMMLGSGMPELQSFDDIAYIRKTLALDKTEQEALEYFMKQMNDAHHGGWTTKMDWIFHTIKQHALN
Sequence (P27986 whole entry partner): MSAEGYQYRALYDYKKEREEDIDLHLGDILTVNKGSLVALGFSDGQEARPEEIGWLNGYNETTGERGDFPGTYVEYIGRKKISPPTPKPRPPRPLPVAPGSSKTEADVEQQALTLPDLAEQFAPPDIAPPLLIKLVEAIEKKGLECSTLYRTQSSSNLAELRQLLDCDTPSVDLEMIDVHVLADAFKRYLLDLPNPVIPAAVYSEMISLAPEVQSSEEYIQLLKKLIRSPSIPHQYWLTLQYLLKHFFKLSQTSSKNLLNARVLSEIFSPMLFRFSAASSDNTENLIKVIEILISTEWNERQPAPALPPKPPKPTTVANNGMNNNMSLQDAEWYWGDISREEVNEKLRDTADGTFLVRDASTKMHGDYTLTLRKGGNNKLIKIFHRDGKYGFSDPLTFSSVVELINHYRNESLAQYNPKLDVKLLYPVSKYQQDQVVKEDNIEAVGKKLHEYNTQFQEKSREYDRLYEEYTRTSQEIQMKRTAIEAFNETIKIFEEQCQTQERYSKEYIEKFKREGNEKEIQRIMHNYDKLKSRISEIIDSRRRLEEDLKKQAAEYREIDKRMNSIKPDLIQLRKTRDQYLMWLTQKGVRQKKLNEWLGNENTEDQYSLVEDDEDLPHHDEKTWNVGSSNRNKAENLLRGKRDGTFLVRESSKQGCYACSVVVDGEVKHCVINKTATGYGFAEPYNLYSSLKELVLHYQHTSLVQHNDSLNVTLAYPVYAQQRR
Entries whose IC50 is below 0.07 µM take condition met; entries at or above 0.07 µM take condition not met.

compound=O=S(=O)(Nc1cc(-c2ccc3cccnc3c2)cnc1Cl)c1ccc(F)cc1 category="condition not met"

Inquiry: Decide: IC50 of O=S(=O)(Nc1cc(-c2cnc3ncccc3c2)cnc1Cl)c1ccc(F)cc1 strictly below 0.07 µM?
Reply text: condition not met

Inquiry: Dear reviewer, please state whether CC(C)(C)OC(=O)NCCOc1ccnc2ccc(-c3cnc(Cl)c(NS(=O)(=O)c4ccc(F)cc4)c3)cc12 has IC50 strictly beneath 0.07 µM.
Reply text: condition met

Inquiry: # TODO verify IC50 < 0.07 µM strictly for this compound: CS(=O)(=O)Nc1cc(-c2ccc3nccc(Oc4ccccc4)c3c2)cnc1Cl
Reply text: condition not met

Inquiry: Take the compound O=S(=O)(Nc1cc(-c2ccc3ncc(N4CCC(F)(F)CC4)nc3c2)cnc1Cl)c1ccc(F)cc1 and say whether its IC50 is less than 0.07 µM.
Reply text: condition met

Inquiry: Please check: IC50 for CC(Nc1cnc2ccc(-c3cnc(Cl)c(NS(=O)(=O)c4ccc(F)cc4)c3)cc2n1)c1ccc(F)cc1 (stereo not shown) , strictly under 0.07 µM or not?
Reply text: condition met

Inquiry: Threshold test, IC50 < 0.07 µM: COc1cnc2ccc(-c3cnc(Cl)c(NS(=O)(=O)c4ccc(F)cc4)c3)cc2c1
Reply text: condition met

Inquiry: # TODO verify IC50 < 0.07 µM strictly for this compound: O=S(=O)(Nc1cc(-c2ccc3nccc(-c4ccccc4)c3c2)cnc1Cl)c1ccc(F)cc1
Reply text: condition met

Inquiry: Report whether reported IC50 is lower than 0.07 µM (strictly) for O=S(=O)(Nc1cc(-c2ccc3ncc(O)cc3c2)cnc1Cl)c1ccc(F)cc1
Reply text: condition met

----------
target: PI3Kβ (Homo sapiens, UniProt P42338); construct: Full length p110 subunits of PI3K α, β and δ, N-terminally labeled with polyHis tag; polyHis (N); made in house; host or cells: Sf9 insect cells (baculovirus); assay: In vitro PI3 kinase enzyme assay (PI3K ATP loss), beta; assay type: biochemical; conditions: average if run more than once
Sequence (P42338 whole entry): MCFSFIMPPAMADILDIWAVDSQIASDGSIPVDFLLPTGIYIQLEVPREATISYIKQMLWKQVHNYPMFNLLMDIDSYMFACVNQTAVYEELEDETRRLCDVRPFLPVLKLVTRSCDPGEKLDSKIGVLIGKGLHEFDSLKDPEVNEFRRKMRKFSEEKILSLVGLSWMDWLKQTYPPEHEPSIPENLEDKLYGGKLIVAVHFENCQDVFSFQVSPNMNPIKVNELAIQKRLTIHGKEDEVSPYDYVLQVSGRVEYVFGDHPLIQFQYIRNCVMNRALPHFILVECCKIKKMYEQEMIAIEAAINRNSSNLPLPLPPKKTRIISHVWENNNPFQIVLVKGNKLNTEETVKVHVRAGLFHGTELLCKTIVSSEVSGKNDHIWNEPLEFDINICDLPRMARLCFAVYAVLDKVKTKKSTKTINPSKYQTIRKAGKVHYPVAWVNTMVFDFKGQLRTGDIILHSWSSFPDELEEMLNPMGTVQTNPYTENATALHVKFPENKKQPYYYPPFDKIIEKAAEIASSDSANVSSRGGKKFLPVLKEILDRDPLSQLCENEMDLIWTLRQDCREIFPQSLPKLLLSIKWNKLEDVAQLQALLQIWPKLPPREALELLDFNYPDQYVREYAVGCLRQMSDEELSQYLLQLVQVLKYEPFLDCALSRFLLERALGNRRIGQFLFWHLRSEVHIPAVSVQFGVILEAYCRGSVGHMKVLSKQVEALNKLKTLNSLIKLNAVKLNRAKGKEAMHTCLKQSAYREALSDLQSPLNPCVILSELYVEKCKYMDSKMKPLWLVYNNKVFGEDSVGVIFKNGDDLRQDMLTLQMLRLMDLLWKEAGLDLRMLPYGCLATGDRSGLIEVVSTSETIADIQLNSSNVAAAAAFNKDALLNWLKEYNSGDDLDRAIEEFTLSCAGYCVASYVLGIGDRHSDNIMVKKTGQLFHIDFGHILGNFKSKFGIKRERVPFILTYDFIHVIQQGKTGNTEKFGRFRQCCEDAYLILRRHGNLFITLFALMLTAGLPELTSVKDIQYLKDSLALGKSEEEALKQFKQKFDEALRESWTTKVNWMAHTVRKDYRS
Sequence (P27986 whole entry partner): as the sequence (P27986 whole entry partner) above
observable: log10(IC50) (log10 of the value in µM)
Give log10 of IC50, with IC50 taken in µM.

Some solved cases for reference:
molecule="COc1ccc(S(=O)(=O)Nc2cc(-c3ccc4ncccc4c3)cnc2Cl)cc1 [Example 47]" measurement_target="PI3Kβ (Homo sapiens, UniProt P42338)" observed_measurement=-1.60
molecule="O=S(=O)(Nc1cc(-c2ccc3ncccc3n2)cnc1Cl)c1ccc(F)cc1 [Example 41]" measurement_target="PI3Kβ (Homo sapiens, UniProt P42338)" observed_measurement=-1.22
molecule="COC1CCCN(c2cnc3ccc(-c4cnc(Cl)c(NS(=O)(=O)c5ccc(F)cc5)c4)cc3n2)C1 (stereo not shown) [Example 66]" measurement_target="PI3Kβ (Homo sapiens, UniProt P42338)" observed_measurement=-1.52
molecule="O=S(=O)(Nc1cc(-c2ccc3ncccc3c2)cnc1Cl)c1ccc(F)cc1 [Example 7]" measurement_target="PI3Kβ (Homo sapiens, UniProt P42338)" observed_measurement=-1.56
molecule="COc1cnc2ccc(-c3cnc(Cl)c(NS(C)(=O)=O)c3)cc2c1 [Example 10]" measurement_target="PI3Kβ (Homo sapiens, UniProt P42338)" observed_measurement=-0.78

Inquiry: Name the recorded log10(IC50) of the item CC(=O)N1CCN(c2cnc3ccc(-c4cnc(Cl)c(NS(=O)(=O)c5ccc(F)cc5)c4)cc3n2)CC1 [Example 56] in your answer.
Reply text: -1.50

Inquiry: Name the recorded log10(IC50) of the molecule listed here: CS(=O)(=O)Nc1cc(-c2ccc3nccc(Oc4ccccc4)c3c2)cnc1Cl [Example 5]
Reply text: -0.98

Inquiry: Provide measured log10(IC50) value, entry: CN(Cc1ccccc1)c1cnc2ccc(-c3cnc(Cl)c(NS(=O)(=O)c4ccc(F)cc4)c3)cc2n1 [Example 65]
Reply text: -1.52

Inquiry: Annotate the molecule CC(C)(C)OC(=O)N1CCCC(CNc2cnc3ccc(-c4cnc(Cl)c(NS(=O)(=O)c5ccc(F)cc5)c4)cc3n2)C1 (stereo not shown) [Example 59] with its measured log10(IC50).
Reply text: -1.65

Inquiry: Please supply the value of reported log10(IC50) for the item O=S(=O)(Nc1cc(-c2ccc3cccnc3c2)cnc1Cl)c1ccc(F)cc1 [Example 18]
Reply text: 0.89

Inquiry: Provide measured log10(IC50) value, entry: CN(C)c1cc(-c2ccc3nccc(N4CCOCC4)c3c2)cnc1Cl [Example 51]
Reply text: 0.39

Inquiry: Recall and state the measured log10(IC50) for O=S(=O)(Nc1cc(-c2ccc3nnccc3c2)cnc1Cl)c1ccc(F)cc1 [Example 37] .
Reply text: -0.67

Inquiry: Entry CC(C)N1CCN(c2ccnc3ccc(-c4cnc(Cl)c(NS(=O)(=O)c5ccc(F)cc5)c4)cc23)CC1 [Example 25] needs its log10(IC50) filled in; supply it.
Reply text: -1.92

Inquiry: Please report the measured log10(IC50) for COc1ccc(S(=O)(=O)Nc2cc(-c3ccc4nccc(N(C)C)c4c3)cnc2Cl)cc1 [Example 49]
Reply text: -1.82

Inquiry: Input O=S(=O)(Nc1cc(-c2ccc3nccc(N4CCOCC4)c3c2)cnc1Cl)c1c(Cl)cccc1Cl [Example 34] , output reported log10(IC50).
Reply text: -1.44

Inquiry: Give reported log10(IC50) value for O=S(=O)(Nc1cc(-c2ccc3nccc(-c4ccccc4)c3c2)cnc1Cl)c1ccc(F)cc1 [Example 36]
Reply text: -1.83

----------
# maps each entry to its IC50
system: phosphorylation of Akt at Serine 473; experiment: pAkt AlphaScreen (U87 cell); assay type: cell-based; details: Homo sapiens, U-87 MG; U87 MG cells, pAkt Ser473; average
Write the answer as a number in µM, unit excluded.

Consider the reported IC50 for these compounds:
substance_smiles=CS(=O)(=O)Nc1cc(-c2ccc3nccc(N4CCN(Cc5ccc6c(c5)OCO6)CC4)c3c2)cnc1Cl observable=IC50 observed_measurement=0.289
substance_smiles=O=S(=O)(Nc1cc(-c2ccc3c(c2)OCCO3)cnc1Cl)c1ccc(F)cc1 observable=IC50 observed_measurement=20.4
substance_smiles=O=S(=O)(Nc1cc(-c2ccc3nccc(N4CCOCC4)c3c2)cnc1Cl)c1cccnc1 observable=IC50 observed_measurement=0.0762

Inquiry: Param request: IC50 | system phosphorylation of Akt at Serine 473 | item CS(=O)(=O)Nc1cc(-c2ccc3nccc(-c4cccnc4)c3c2)cnc1Cl
Reply text: 0.019

----------
tested on: phosphorylation of Akt at Ser473; assay: Cell-based phospho-Akt Ser473 assay (HCT116 cell); settings: HCT 116 human colon carcinoma cells, IGF-1 stimulated; average
observable: log10 IC50 (log10 of the value in µM)
Response schema: value (number) is log10 of IC50 in units of µM.

Example results:
molecule="COc1ncccc1-c1ccnc2ccc(-c3cnc(Cl)c(NS(=O)(=O)c4ccc(F)cc4)c3)cc12 [Example 35]" observed_measurement=-1.26
molecule="COc1ccc(S(=O)(=O)Nc2cc(-c3ccc4nc(N)ccc4c3)cnc2Cl)cc1 [Example 46]" observed_measurement=-0.97
molecule="COc1ccc(S(=O)(=O)Nc2cc(-c3ccc4ncccc4c3)cnc2Cl)cc1 [Example 47]" observed_measurement=-0.28
molecule="CS(=O)(=O)Nc1cc(-c2ccc3ncccc3c2)cnc1Cl [Example 12]" observed_measurement=0.42
molecule="CN(CC#N)c1cnc2ccc(-c3cnc(Cl)c(NS(=O)(=O)c4ccc(F)cc4)c3)cc2n1 [Example 71]" observed_measurement=-1.05

Inquiry: Give reported log10 IC50 for COC1CCN(c2cnc3ccc(-c4cnc(Cl)c(NS(=O)(=O)c5ccc(F)cc5)c4)cc3n2)CC1 [Example 69] (phosphorylation of Akt at Ser473)
Reply text: -1.28

Inquiry: Find log10 IC50 for CC(C)N1CCN(c2cnc3ccc(-c4cnc(Cl)c(NS(=O)(=O)c5ccc(F)cc5)c4)cc3n2)CC1 [Example 21] on phosphorylation of Akt at Ser473 and write it down.
Reply text: -1.94

Inquiry: Check phosphorylation of Akt at Ser473 data and give log10 IC50 for COc1ccnc2ccc(-c3cnc(Cl)c(NS(=O)(=O)c4ccc(F)cc4)c3)cc12 [Example 8] .
Reply text: -0.65

----------
molecular target: PI3Kα (Homo sapiens); construct: Full length p110 subunits of PI3K α, β and δ, N-terminally labeled with polyHis tag; polyHis (N); made in house; host or cells: Sf9 insect cells (baculovirus); experiment: In vitro PI3 kinase enzyme assay (PI3K ATP loss), alpha; type: biochemical; details: average if run more than once; read-out: ATP Loss (PBKα) IC50 μM (Avg)
observable: log10(IC50) (log10 of the value in µM)
The figures below represent log10 of IC50, where IC50 is stated in µM.

Worked cases, log10(IC50) given:
compound=COc1ccc(S(=O)(=O)Nc2cc(-c3ccc4nc(NC(C)=O)ccc4c3)cnc2Cl)cc1 observed_measurement=-1.72
compound="CC(C)(C)OC(=O)N1CCCC(CNc2cnc3ccc(-c4cnc(Cl)c(NS(=O)(=O)c5ccc(F)cc5)c4)cc3n2)C1 (centres unmarked)" observed_measurement=-2.51
compound=CC(C)(C)C(=O)NCc1cc(-c2ccc3nccc(N4CCOCC4)c3c2)cnc1Cl observed_measurement=0.49
compound=O=S(=O)(Nc1cc(-c2ccc3nccc(N4CCN(Cc5ccccc5)CC4)c3c2)cnc1Cl)c1ccc(F)cc1 observed_measurement=-2.21
compound=OCc1cc(-c2ccc3nccc(N4CCOCC4)c3c2)cnc1Cl observed_measurement=0.05

Inquiry: Tell me log10(IC50) of COc1ccc(CNc2cnc3ccc(-c4cnc(Cl)c(NS(=O)(=O)c5ccc(F)cc5)c4)cc3n2)cc1 when tested on PI3Kα (Homo sapiens).
Reply text: -2.25

Inquiry: Please report the measured log10(IC50) for COCC1CCCN1c1cnc2ccc(-c3cnc(Cl)c(NS(=O)(=O)c4ccc(F)cc4)c3)cc2n1 (centres unmarked) tested on PI3Kα (Homo sapiens).
Reply text: -2.09

Inquiry: Recall the reported log10(IC50) of COc1ccc(S(=O)(=O)Nc2cc(-c3ccc4nccc(N5CCC(OC)CC5)c4c3)cnc2Cl)cc1 when tested on PI3Kα (Homo sapiens).
Reply text: -2.52

Inquiry: # return log10(IC50) for O=S(=O)(Nc1cc(-c2ccc3nccc(N4CCOCC4)c3c2)cnc1Cl)c1c(Cl)cccc1Cl , test system: PI3Kα (Homo sapiens)
Reply text: -2.19

Inquiry: Please report log10(IC50) with PI3Kα (Homo sapiens) for item Nc1nc2ccc(-c3cnc(Cl)c(NS(=O)(=O)c4ccc(F)cc4)c3)cc2[nH]c1=O .
Reply text: -1.77

Inquiry: Fill in: log10(IC50) on PI3Kα (Homo sapiens), entry CC(=O)OCc1cc(-c2ccc3nccc(N4CCOCC4)c3c2)cnc1Cl
Reply text: 0.14
